experimentalTarget: human V1a receptor (Homo sapiens)
Construct: expressed in transfected cells; host or cells: CHO K1 (Chinese hamster ovary), also stably transfected with a modified aequorin
testSummary: Cellular in vitro assay for vasopressin receptor activity, V1a receptor cell line (aequorin luminescence)
Format: cell-based
statedConditions: selectivity ratio of the IC50 values hV2/hV1a
Give ratio IC50 hV2/hV1a for every item shown.
In your answer, state the number alone without any accompanying words.

*Q* Would you kindly share the measured ratio IC50 hV2/hV1a for O=C(c1nc(Cn2nc(-c3ccc(Cl)cc3)n(C[C@H](O)C(F)(F)F)c2=O)nn1-c1ccccc1Cl)N1CCOCC1 [Example 30] ?
*A* 29.0

*Q* Would you kindly share the measured ratio IC50 hV2/hV1a for CC(C)(C)NC(=O)c1nc(Cn2nc(-c3ccc(Cl)cc3)n(C[C@H](O)C(F)(F)F)c2=O)nn1-c1ncccc1C(F)(F)F [Example 48] ?
*A* 31.3

*Q* Would you kindly share the measured ratio IC50 hV2/hV1a for CC1(O)CCN(C(=O)c2nc(Cn3nc(-c4ccc(Cl)cc4)n(C[C@H](O)C(F)(F)F)c3=O)nn2-c2ncccc2C(F)(F)F)C1 (stereo partly drawn) [Example 57] ?
*A* 160.0

---

experimentalTarget: human V1a receptor (Homo sapiens)
testSummary: Cellular in vitro assay for vasopressin receptor activity, V1a receptor cell line (aequorin luminescence)
statedConditions: CHO cell line transfected with human V1a receptor; [Arg8]-vasopressin at EC50 concentration; read-out: IC50 hV1a
Where a name gives a salt, the structure may show the parent alone.
measurementKind: pIC50
// pIC50: -log10(molar conc.)

*Q* Would you kindly share the measured pIC50 for O=C(c1nc(Cn2nc(-c3ccc(Cl)cc3)n(C[C@H](O)C(F)(F)F)c2=O)nn1-c1cccc(F)c1)N1CCNCC1 [Example 41, trifluoroacetate] ?
*A* 7.72

*Q* Would you kindly share the measured pIC50 for `CON(C)C(=O)c1nc(Cn2nc(-c3ccc(Cl)cc3)n(C[C@H](O)C(F)(F)F)c2=O)nn1-c1ccccc1Cl` ?
*A* 8.92

*Q* Would you kindly share the measured pIC50 for `O=C(c1nc(Cn2nc(-c3ccc(Cl)cc3)n(C[C@H](O)C(F)(F)F)c2=O)nn1CCC(F)(F)F)N1CCOCC1` ?
*A* 7.12

*Q* Would you kindly share the measured pIC50 for `CC1(CNC(=O)c2nc(Cn3nc(-c4ccc(Cl)cc4)n(C[C@H](O)C(F)(F)F)c3=O)nn2-c2ncccc2OC(F)(F)F)COC1` ?
*A* 8.59

*Q* Would you kindly share the measured pIC50 for `NNC(=O)c1nc(Cn2nc(-c3ccc(Cl)cc3)n(C[C@H](O)C(F)(F)F)c2=O)nn1-c1cnccc1Cl` ?
*A* 8.54

*Q* Would you kindly share the measured pIC50 for `O=C(NCCC(F)(F)F)c1nc(Cn2nc(-c3ccc(Cl)cc3)n(C[C@H](O)C(F)(F)F)c2=O)nn1-c1ncccc1C(F)(F)F` ?
*A* 9.11

---

experimentalTarget: human V2 receptor (Homo sapiens, UniProt P30518)
Sequence (P30518 whole entry): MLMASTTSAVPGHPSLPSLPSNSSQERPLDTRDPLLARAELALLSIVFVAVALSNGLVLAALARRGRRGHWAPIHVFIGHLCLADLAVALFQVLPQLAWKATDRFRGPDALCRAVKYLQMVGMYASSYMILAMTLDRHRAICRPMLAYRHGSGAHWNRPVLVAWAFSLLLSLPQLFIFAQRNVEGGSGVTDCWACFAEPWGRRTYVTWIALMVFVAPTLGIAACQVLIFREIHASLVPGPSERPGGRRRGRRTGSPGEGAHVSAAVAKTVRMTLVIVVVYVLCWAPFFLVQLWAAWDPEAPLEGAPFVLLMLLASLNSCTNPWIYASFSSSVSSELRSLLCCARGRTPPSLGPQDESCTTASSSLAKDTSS
testSummary: Cellular in vitro assay for vasopressin receptor activity, V2 receptor cell line (CRE-luciferase)
statedConditions: CHO cell line transfected with human V2 receptor; [Arg8]-vasopressin at EC50 concentration; read-out: IC50 hV2
Counter-ions that a name gives are not always drawn.
Field 'label' (enum: 1.0 / 0.0). Set to 1.0 when IC50 is strictly under 40 nM; else 0.0.

*Q* hey, is IC50 for O=C(c1nc(Cn2nc(-c3ccc(Cl)cc3)n(C[C@H](O)C(F)(F)F)c2=O)nn1-c1cccc(Cl)c1)N1CCOCC1 [Example 36] lower than 40 nM or not?
*A* 1.0

*Q* hey, is IC50 for O=C(NCC(F)(F)F)c1nc(Cn2nc(-c3ccc(Cl)cc3)n(C[C@H](O)C(F)(F)F)c2=O)nn1-c1cnccc1Cl [Example 19] lower than 40 nM or not?
*A* 1.0

*Q* hey, is IC50 for CNC(=O)c1nc(Cn2nc(-c3ccc(Cl)cc3)n(C[C@H](O)C(F)(F)F)c2=O)nn1-c1cccc(Cl)c1 [Example 34] lower than 40 nM or not?
*A* 1.0

*Q* hey, is IC50 for O=C(NCC1(O)CC1)c1nc(Cn2nc(-c3ccc(Cl)cc3)n(C[C@H](O)C(F)(F)F)c2=O)nn1-c1ccccc1Cl [Example 32] lower than 40 nM or not?
*A* 1.0

*Q* hey, is IC50 for O=C(NCC(F)(F)F)c1nc(Cn2nc(-c3ccc(Cl)cc3)n(C[C@H](O)C(F)(F)F)c2=O)nn1-c1ncccc1C(F)(F)F [Example 47] lower than 40 nM or not?
*A* 1.0

*Q* hey, is IC50 for CC(C)(C)CNC(=O)c1nc(Cn2nc(-c3ccc(Cl)cc3)n(C[C@H](O)C(F)(F)F)c2=O)nn1-c1ncccc1C(F)(F)F [Example 50] lower than 40 nM or not?
*A* 0.0

*Q* hey, is IC50 for O=C(c1nc(Cn2nc(-c3ccc(Cl)cc3)n(C[C@H](O)C(F)(F)F)c2=O)nn1-c1cccc(F)c1)N1CCNCC1 [Example 41, trifluoroacetate] lower than 40 nM or not?
*A* 0.0

---

experimentalTarget: human V2 receptor (Homo sapiens, UniProt P30518)
Construct: expressed in transfected cells; host or cells: CHO K1 (Chinese hamster ovary) expressing firefly luciferase under a CRE-responsive promoter
testSummary: Cellular in vitro assay for vasopressin receptor activity, V2 receptor cell line (CRE-luciferase)
Format: cell-based
statedConditions: CHO cell line transfected with human V2 receptor; [Arg8]-vasopressin at EC50 concentration; read-out: IC50 hV2
Give IC50 for every item shown.
Kindly provide the numeric value in nM only, without the unit symbol.

*Q* Which IC50 is reported with human V2 receptor (Homo sapiens, UniProt P30518) for this entry: O=CN1CCC(NC(=O)c2nc(Cn3nc(-c4ccc(Cl)cc4)n(C[C@H](O)C(F)(F)F)c3=O)nn2-c2cnccc2Cl)C1 (mixture of isomers) ?
*A* 285

*Q* Which IC50 is reported with human V2 receptor (Homo sapiens, UniProt P30518) for this entry: `CC(C)(O)CNC(=O)c1nc(Cn2nc(-c3ccc(Cl)cc3)n(C[C@H](O)C(F)(F)F)c2=O)nn1-c1cccnc1Cl` ?
*A* 183

*Q* Which IC50 is reported with human V2 receptor (Homo sapiens, UniProt P30518) for this entry: `COCCNC(=O)c1nc(Cn2nc(-c3ccc(Cl)cc3)n(C[C@H](O)C(F)(F)F)c2=O)nn1-c1cccc(F)c1` ?
*A* 23.4

*Q* Which IC50 is reported with human V2 receptor (Homo sapiens, UniProt P30518) for this entry: CC1(O)CCN(C(=O)c2nc(Cn3nc(-c4ccc(Cl)cc4)n(C[C@H](O)C(F)(F)F)c3=O)nn2CCC(F)(F)F)C1 (single isomer, unassigned) [Example 24] ?
*A* 300

*Q* Which IC50 is reported with human V2 receptor (Homo sapiens, UniProt P30518) for this entry: `O=C(c1nc(Cn2nc(-c3ccc(Cl)cc3)n(C[C@H](O)C(F)(F)F)c2=O)nn1-c1ncccc1C(F)(F)F)N1CC(O)(C(F)(F)F)C1` ?
*A* 435

*Q* Which IC50 is reported with human V2 receptor (Homo sapiens, UniProt P30518) for this entry: `O=C(c1nc(Cn2nc(-c3ccc(Cl)cc3)n(C[C@H](O)C(F)(F)F)c2=O)nn1-c1ccccc1Cl)N1CC(O)(C(F)(F)F)C1` ?
*A* 22.2

---

experimentalTarget: human V1a receptor (Homo sapiens, UniProt P37288)
Construct: expressed in transfected cells; host or cells: CHO K1 (Chinese hamster ovary), also stably transfected with a modified aequorin
Sequence (P37288 whole entry): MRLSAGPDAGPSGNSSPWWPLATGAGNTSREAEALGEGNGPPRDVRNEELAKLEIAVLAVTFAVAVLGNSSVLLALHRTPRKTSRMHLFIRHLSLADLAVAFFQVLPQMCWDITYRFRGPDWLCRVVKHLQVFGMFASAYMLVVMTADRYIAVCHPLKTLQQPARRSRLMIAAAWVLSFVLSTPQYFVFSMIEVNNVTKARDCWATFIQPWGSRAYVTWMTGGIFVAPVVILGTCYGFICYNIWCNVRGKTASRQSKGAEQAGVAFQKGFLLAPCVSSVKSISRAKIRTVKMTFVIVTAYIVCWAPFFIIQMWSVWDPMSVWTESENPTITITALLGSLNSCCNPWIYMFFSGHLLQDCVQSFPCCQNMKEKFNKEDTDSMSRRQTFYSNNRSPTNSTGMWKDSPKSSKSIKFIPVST
testSummary: Cellular in vitro assay for vasopressin receptor activity, V1a receptor cell line (aequorin luminescence)
Type: cell-based
statedConditions: selectivity ratio of the IC50 values hV2/hV1a
Protocol: B-1. Cellular In Vitro Assay for Determining Vasopressin Receptor Activity The identification of agonists and antagonists of the V1a and V2 vasopressin receptors from humans, rats and dogs as well as the quantification of the activity of the compounds of the invention is carried out using recombinant cell lines. […] The bioluminescence of the cell lines is detected using a suitable luminometer [Milligan G, Marshall F, Rees S, Trends in Pharmacological Sciences 17, 235-237 (1996)]. […]
measurementKind: ratio IC50 hV2/hV1a
In your answer, state the number alone without any accompanying words.

*Q* Would you kindly share the measured ratio IC50 hV2/hV1a for `CC1(CNC(=O)c2nc(Cn3nc(-c4ccc(Cl)cc4)n(C[C@H](O)C(F)(F)F)c3=O)nn2-c2ncccc2C(F)(F)F)COC1` ?
*A* 98.4

*Q* Would you kindly share the measured ratio IC50 hV2/hV1a for O=CN1CCC(NC(=O)c2nc(Cn3nc(-c4ccc(Cl)cc4)n(C[C@H](O)C(F)(F)F)c3=O)nn2-c2cnccc2Cl)C1 (mixture of isomers) ?
*A* 190.0

*Q* Would you kindly share the measured ratio IC50 hV2/hV1a for `CN(C)C(=O)c1nc(Cn2nc(-c3ccc(Cl)cc3)n(C[C@H](O)C(F)(F)F)c2=O)nn1-c1cccc(Cl)c1` ?
*A* 0.7

*Q* Would you kindly share the measured ratio IC50 hV2/hV1a for `O=C(NC1CC1)c1nc(Cn2nc(-c3ccc(Cl)cc3)n(C[C@H](O)C(F)(F)F)c2=O)nn1-c1cccc(F)c1` ?
*A* 0.6

*Q* Would you kindly share the measured ratio IC50 hV2/hV1a for `O=C(NCC(F)(F)F)c1nc(Cn2nc(-c3ccc(Cl)cc3)n(C[C@H](O)C(F)(F)F)c2=O)nn1-c1cccc(F)c1` ?
*A* 1.2

*Q* Would you kindly share the measured ratio IC50 hV2/hV1a for CC1(O)CCN(C(=O)c2nc(Cn3nc(-c4ccc(Cl)cc4)n(C[C@H](O)C(F)(F)F)c3=O)nn2CCC(F)(F)F)C1 (single isomer, unassigned) [Example 23] ?
*A* 0.9

*Q* Would you kindly share the measured ratio IC50 hV2/hV1a for `NNC(=O)c1nc(Cn2nc(-c3ccc(Cl)cc3)n(C[C@H](O)C(F)(F)F)c2=O)nn1-c1cnccc1Cl` ?
*A* 51.1

*Q* Would you kindly share the measured ratio IC50 hV2/hV1a for `CNC(=O)c1nc(Cn2nc(-c3ccc(Cl)cc3)n(C[C@H](O)C(F)(F)F)c2=O)nn1-c1ccccc1OC` ?
*A* 7.4

*Q* Would you kindly share the measured ratio IC50 hV2/hV1a for `CC(C)(C)NC(=O)c1nc(Cn2nc(-c3ccc(Cl)cc3)n(C[C@H](O)C(F)(F)F)c2=O)nn1-c1ncccc1OC(F)(F)F` ?
*A* 32.6

*Q* Would you kindly share the measured ratio IC50 hV2/hV1a for `COCCNC(=O)c1nc(Cn2nc(-c3ccc(Cl)cc3)n(C[C@H](O)C(F)(F)F)c2=O)nn1-c1cccc(F)c1` ?
*A* 0.6

*Q* Would you kindly share the measured ratio IC50 hV2/hV1a for `CNC(=O)c1nc(Cn2nc(-c3ccc(Cl)cc3)n(C[C@H](O)C(F)(F)F)c2=O)nn1-c1cccc(Cl)c1` ?
*A* 0.2

*Q* Would you kindly share the measured ratio IC50 hV2/hV1a for `COc1cccnc1-n1nc(Cn2nc(-c3ccc(Cl)cc3)n(C[C@H](O)C(F)(F)F)c2=O)nc1C(=O)NCC(C)(C)N` ?
*A* 14.9

*Q* Would you kindly share the measured ratio IC50 hV2/hV1a for CC1(O)CCN(C(=O)c2nc(Cn3nc(-c4ccc(Cl)cc4)n(C[C@H](O)C(F)(F)F)c3=O)nn2CCC(F)(F)F)C1 (single isomer, unassigned) [Example 24] ?
*A* 1.6
